assay-remarks: AUC in rhesus monkey at 2 mg/kg, po
Assay type: ADME, organism-based, Macaca mulatta
Parameters: dose 2 mg/kg, route oral
study-conditions: plasma
readout-label: AUC (µM·h)
The response must be a number in µM·h with no trailing unit.

Consider the compound CC(C)[C@]1(C(=O)NCc2cc(C(F)(F)F)cc(C(F)(F)F)c2)CC[C@@H](N[C@H]2CCOC[C@H]2C)C1 and give its measured AUC.
0.01

====

test-system: C-C chemokine receptor type 2 (Homo sapiens, UniProt P41597)
Sequence (P41597 whole entry): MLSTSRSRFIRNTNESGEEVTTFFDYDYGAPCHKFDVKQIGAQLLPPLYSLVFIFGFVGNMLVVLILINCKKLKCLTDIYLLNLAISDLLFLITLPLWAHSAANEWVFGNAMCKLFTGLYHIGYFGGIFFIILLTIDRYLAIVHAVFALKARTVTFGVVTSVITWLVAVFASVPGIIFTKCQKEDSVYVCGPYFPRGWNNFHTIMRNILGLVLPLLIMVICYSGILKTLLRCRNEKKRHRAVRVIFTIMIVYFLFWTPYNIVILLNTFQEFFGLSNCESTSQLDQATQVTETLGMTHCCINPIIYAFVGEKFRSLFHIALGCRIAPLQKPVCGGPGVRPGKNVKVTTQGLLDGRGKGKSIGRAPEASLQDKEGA
assay-remarks: Displacement of [125I]hMCP1 from human CCR2 receptor expressed in CHO cells
Threshold 40 nM: IC50 strictly smaller gives true (1), otherwise false (0).

Consider the following illustrative entries.
compound	test-system	label-value
Cc1ccc(-c2ccc3c(c2)C=C(C(=O)Nc2ccc(C[N+](C)(C)C4CCOCC4)cc2)CCC3)cc1	C-C chemokine receptor type 2 (Homo sapiens, UniProt P41597)	true (1)
CC(C)[C@]1(C(=O)NCc2cc(C(F)(F)F)cc(C(F)(F)F)c2)CC[C@@H](NC2CCS(=O)(=O)CC2)C1	C-C chemokine receptor type 2 (Homo sapiens, UniProt P41597)	false (0)
CCC1COCCC1N[C@@H]1CC[C@@](C(=O)NCc2cc(C(F)(F)F)cc(C(F)(F)F)c2)(C(C)C)C1 (stereo in doubt; 62)	C-C chemokine receptor type 2 (Homo sapiens, UniProt P41597)	true (1)

# check: IC50 < 40 nM for CC1COCCC1N[C@@H]1CC[C@@](C(=O)NCc2cc(C(F)(F)F)cc(C(F)(F)F)c2)(C(C)C)C1 (stereo in doubt; 57)
false (0)

# check: IC50 < 40 nM for CC(C)[C@]1(C(=O)NCc2cc(C(F)(F)F)cc(C(F)(F)F)c2)CC[C@@H](NC2CCOCC2F)C1 (stereo in doubt; 63)
false (0)

# check: IC50 < 40 nM for CC(C)[C@]1(C(=O)NCc2cc(C(F)(F)F)cc(C(F)(F)F)c2)CC[C@@H](NC2CCc3ccccc3C2)C1 (stereo partly specified)
false (0)

====

assay-remarks: Tmax in Beagle dog at 2 mg/kg, po
Type: ADME, organism-based, Canis lupus familiaris
Set-up: dose 2 mg/kg, route oral
study-conditions: in vivo
readout-label: Tmax (min)
The response must be a number in min with no trailing unit.

Consider the molecule CC(C)[C@]1(C(=O)NCc2cc(C(F)(F)F)cc(C(F)(F)F)c2)CC[C@@H](N[C@H]2CCOC[C@H]2C)C1 and give its measured Tmax.
45

====

assay-remarks: Oral bioavailability in Sprague-Dawley rat at 3 mg/kg
Format: ADME, organism-based
study-conditions: in vivo
readout-label: bioavailability (%)
The response must be a number in % with no trailing unit.

Consider the compound CC(C)[C@]1(C(=O)NCc2cc(C(F)(F)F)cc(C(F)(F)F)c2)CC[C@@H](N[C@H]2CCOC[C@H]2C)C1 and give its measured bioavailability.
42

====

test-system: C-C chemokine receptor type 2 (Homo sapiens)
assay-remarks: Displacement of [125I]hMCP1 from human CCR2 receptor expressed in CHO cells
pIC50: −log10 of the molar value.
Param threshold (7) applies to pIC50; output criterion met when value >= threshold, criterion not met when value < threshold.

Consider the following illustrative entries.
compound	label-value
CCC1COCCC1N[C@@H]1CC[C@@](C(=O)NCc2cc(C(F)(F)F)cc(C(F)(F)F)c2)(C(C)C)C1 (stereo in doubt; 46)	criterion met
CC(C)[C@]1(C(=O)NCc2cc(C(F)(F)F)cc(C(F)(F)F)c2)CC[C@@H](NC2CCCOC2)C1 (stereo not given in full)	criterion met

Please check the record CC(C)[C@]1(C(=O)NCc2cc(C(F)(F)F)cc(C(F)(F)F)c2)CC[C@@H](NC2CCCCCC2)C1 and state if its pIC50 is at or above 7.
criterion not met

Please check the record CC(C)[C@]1(C(=O)NCc2cc(C(F)(F)F)cc(C(F)(F)F)c2)CC[C@@H](NC2CCOc3ccccc32)C1 (stereo not given in full) and state if its pIC50 is at or above 7.
criterion not met

Please check the record CC(C)[C@]1(C(=O)NCc2cc(C(F)(F)F)cc(C(F)(F)F)c2)CC[C@@H](NC2CCOCC2(C)C)C1 (stereo not given in full) and state if its pIC50 is at or above 7.
criterion not met

Please check the record CC(C)[C@]1(C(=O)NCc2cc(C(F)(F)F)cc(C(F)(F)F)c2)CC[C@@H](NC2CCOCC2O)C1 (stereo not given in full) and state if its pIC50 is at or above 7.
criterion met

Please check the record CC1COCC(C)C1N[C@@H]1CC[C@@](C(=O)NCc2cc(C(F)(F)F)cc(C(F)(F)F)c2)(C(C)C)C1 (stereo not given in full) and state if its pIC50 is at or above 7.
criterion met

Please check the record CC1COCCC1N[C@@H]1CC[C@@](C(=O)NCc2cc(C(F)(F)F)cc(C(F)(F)F)c2)(C(C)C)C1 (stereo in doubt; 45) and state if its pIC50 is at or above 7.
criterion met

Please check the record CC(C)[C@]1(C(=O)NCc2cc(C(F)(F)F)cc(C(F)(F)F)c2)CC[C@@H](NC2CCC2)C1 and state if its pIC50 is at or above 7.
criterion not met

Please check the record CCCC1COCCC1N[C@@H]1CC[C@@](C(=O)NCc2cc(C(F)(F)F)cc(C(F)(F)F)c2)(C(C)C)C1 (stereo not given in full) and state if its pIC50 is at or above 7.
criterion met

Please check the record CC(C)[C@]1(C(=O)NCc2cc(C(F)(F)F)cc(C(F)(F)F)c2)CC[C@@H](NC2CCOCC2F)C1 (stereo in doubt; 50) and state if its pIC50 is at or above 7.
criterion met

Please check the record CC(C)[C@]1(C(=O)NCc2cc(C(F)(F)F)cc(C(F)(F)F)c2)CC[C@@H](NC2CCOCC2(O)C(F)(F)F)C1 (stereo not given in full) and state if its pIC50 is at or above 7.
criterion not met

Please check the record CC(C)[C@]1(C(=O)NCc2cc(C(F)(F)F)cc(C(F)(F)F)c2)CC[C@@H](NCC2CCOCC2)C1 and state if its pIC50 is at or above 7.
criterion not met

====

assay-remarks: AUC in Beagle dog at 2 mg/kg, po
Assay type: ADME, organism-based, Canis lupus familiaris
Parameters: dose 2 mg/kg, route oral
study-conditions: plasma
readout-label: AUC (µM·h)
The response must be a number in µM·h with no trailing unit.

Consider the compound CC(C)[C@]1(C(=O)NCc2cc(C(F)(F)F)cc(C(F)(F)F)c2)CC[C@@H](N[C@H]2CCOC[C@H]2C)C1 and give its measured AUC.
0.62

====

assay-remarks: Cmax in Beagle dog at 2 mg/kg, po
Assay type: ADME, organism-based, Canis lupus familiaris
Parameters: dose 2 mg/kg, route oral
study-conditions: in vivo
readout-label: Cmax (nM)
The response must be a number in nM with no trailing unit.

Consider the compound CC(C)[C@]1(C(=O)NCc2cc(C(F)(F)F)cc(C(F)(F)F)c2)CC[C@@H](N[C@H]2CCOC[C@H]2C)C1 and give its measured Cmax.
422

====

assay-remarks: Tmax in Sprague-Dawley rat at 3 mg/kg, po
Assay type: ADME, organism-based
Set-up: dose 3 mg/kg, route oral
study-conditions: in vivo
readout-label: Tmax (min)
The response must be a number in min with no trailing unit.

Consider the compound CC(C)[C@]1(C(=O)NCc2cc(C(F)(F)F)cc(C(F)(F)F)c2)CC[C@@H](N[C@H]2CCOC[C@H]2C)C1 and give its measured Tmax.
15

====

assay-remarks: Oral bioavailability in Beagle dog at 2 mg/kg
Assay type: ADME, organism-based, Canis lupus familiaris
study-conditions: in vivo
readout-label: bioavailability (%)
The response must be a number in % with no trailing unit.

Consider the molecule CC(C)[C@]1(C(=O)NCc2cc(C(F)(F)F)cc(C(F)(F)F)c2)CC[C@@H](N[C@H]2CCOC[C@H]2C)C1 and give its measured bioavailability.
28

====

assay-remarks: Oral bioavailability in rhesus monkey at 2 mg/kg
Format: ADME, organism-based, Macaca mulatta
study-conditions: in vivo
readout-label: bioavailability (%)
The response must be a number in % with no trailing unit.

Consider the compound CC(C)[C@]1(C(=O)NCc2cc(C(F)(F)F)cc(C(F)(F)F)c2)CC[C@@H](N[C@H]2CCOC[C@H]2C)C1 and give its measured bioavailability.
2

====

assay-remarks: Cmax in rhesus monkey at 2 mg/kg, po
Format: ADME, organism-based, Macaca mulatta
Set-up: dose 2 mg/kg, route oral
study-conditions: in vivo
readout-label: Cmax (nM)
The response must be a number in nM with no trailing unit.

Consider the molecule CC(C)[C@]1(C(=O)NCc2cc(C(F)(F)F)cc(C(F)(F)F)c2)CC[C@@H](N[C@H]2CCOC[C@H]2C)C1 and give its measured Cmax.
4
